property: pIC50
Scale explanation: pIC50 corresponds to minus log10 of a concentration expressed in moles per litre.

Form field: pIC50 recorded for Fc1ccc(CNC2CCC(C(c3ccccc3)c3ccccc3)OC2)cc1 (single isomer, unassigned) with UniProtKB Q9WTR4 (enter value)
Sequence (Q9WTR4 whole entry): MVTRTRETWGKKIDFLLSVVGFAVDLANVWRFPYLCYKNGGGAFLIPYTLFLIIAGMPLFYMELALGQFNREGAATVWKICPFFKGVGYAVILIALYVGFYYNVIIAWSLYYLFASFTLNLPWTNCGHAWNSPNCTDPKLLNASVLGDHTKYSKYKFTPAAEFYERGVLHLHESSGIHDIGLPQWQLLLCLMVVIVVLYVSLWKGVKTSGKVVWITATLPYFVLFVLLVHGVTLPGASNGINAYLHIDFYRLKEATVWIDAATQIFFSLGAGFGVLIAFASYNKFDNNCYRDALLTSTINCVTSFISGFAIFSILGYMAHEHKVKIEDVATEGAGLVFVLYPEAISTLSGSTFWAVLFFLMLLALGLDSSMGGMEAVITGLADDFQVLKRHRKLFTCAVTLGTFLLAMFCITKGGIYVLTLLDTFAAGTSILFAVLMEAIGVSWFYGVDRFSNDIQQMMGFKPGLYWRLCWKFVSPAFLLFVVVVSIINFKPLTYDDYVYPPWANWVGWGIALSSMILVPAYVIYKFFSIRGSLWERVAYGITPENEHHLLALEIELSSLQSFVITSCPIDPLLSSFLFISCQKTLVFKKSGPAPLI
4.90

Form field: pIC50 recorded for Fc1ccc(CNC2CCC(C(c3ccccc3)c3ccccc3)NC2)cc1 (centres undefined) with UniProtKB Q9WTR4 (enter value)
5.99

Form field: pIC50 recorded for Fc1ccc(CNC2CCC(C(c3ccccc3)c3ccccc3)OC2)cc1 (racemic) with UniProtKB Q9WTR4 (enter value)
6.63

Form field: pIC50 recorded for N#Cc1ccc(CNC2CCC(C(c3ccccc3)c3ccccc3)OC2)cc1 (racemic) with UniProtKB Q9WTR4 (enter value)
5.80

----------
property: pIC50
Scale explanation: pIC50 corresponds to minus log10 of a concentration expressed in moles per litre.

Form field: pIC50 recorded for Fc1ccc(CNC2CCC(C(c3ccccc3)c3ccccc3)OC2)cc1 (single isomer, unassigned) with Sodium-dependent dopamine transporter (Rattus norvegicus, UniProt P23977) (enter value)
Sequence (P23977 whole entry): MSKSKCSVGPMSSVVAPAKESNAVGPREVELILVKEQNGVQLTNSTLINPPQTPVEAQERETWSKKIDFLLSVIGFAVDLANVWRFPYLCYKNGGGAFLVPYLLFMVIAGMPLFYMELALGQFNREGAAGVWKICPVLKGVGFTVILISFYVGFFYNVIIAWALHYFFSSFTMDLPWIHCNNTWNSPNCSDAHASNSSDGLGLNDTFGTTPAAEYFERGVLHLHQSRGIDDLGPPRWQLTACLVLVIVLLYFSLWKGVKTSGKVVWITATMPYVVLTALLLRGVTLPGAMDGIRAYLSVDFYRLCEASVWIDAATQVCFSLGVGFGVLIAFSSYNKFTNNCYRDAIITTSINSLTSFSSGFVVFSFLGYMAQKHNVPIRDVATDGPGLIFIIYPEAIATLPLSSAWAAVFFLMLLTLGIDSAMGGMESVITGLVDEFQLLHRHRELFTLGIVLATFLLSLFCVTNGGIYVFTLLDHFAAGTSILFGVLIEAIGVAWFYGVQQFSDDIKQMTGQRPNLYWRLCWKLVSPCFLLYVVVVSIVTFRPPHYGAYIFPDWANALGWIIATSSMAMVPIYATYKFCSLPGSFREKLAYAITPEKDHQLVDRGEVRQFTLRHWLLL
6.50

Form field: pIC50 recorded for O=[N+]([O-])c1ccc(CNC2CCC(C(c3ccccc3)c3ccccc3)OC2)cc1 (racemic) with Sodium-dependent dopamine transporter (Rattus norvegicus, UniProt P23977) (enter value)
7.42

Form field: pIC50 recorded for Fc1ccc(CNC2CCC(C(c3ccccc3)c3ccccc3)OC2)cc1 (racemic) with Sodium-dependent dopamine transporter (Rattus norvegicus, UniProt P23977) (enter value)
6.79

Form field: pIC50 recorded for Fc1ccc(CNC2CCC(C(c3ccccc3)c3ccccc3)NC2)cc1 (centres undefined) with Sodium-dependent dopamine transporter (Rattus norvegicus, UniProt P23977) (enter value)
7.49

----------
property: pIC50
Scale explanation: pIC50 corresponds to minus log10 of a concentration expressed in moles per litre.

Form field: pIC50 recorded for Fc1ccc(CNC2CCC(C(c3ccccc3)c3ccccc3)OC2)cc1 (racemic) with Sodium-dependent serotonin transporter (Rattus norvegicus, UniProt P31652) (enter value)
Sequence (P31652 whole entry): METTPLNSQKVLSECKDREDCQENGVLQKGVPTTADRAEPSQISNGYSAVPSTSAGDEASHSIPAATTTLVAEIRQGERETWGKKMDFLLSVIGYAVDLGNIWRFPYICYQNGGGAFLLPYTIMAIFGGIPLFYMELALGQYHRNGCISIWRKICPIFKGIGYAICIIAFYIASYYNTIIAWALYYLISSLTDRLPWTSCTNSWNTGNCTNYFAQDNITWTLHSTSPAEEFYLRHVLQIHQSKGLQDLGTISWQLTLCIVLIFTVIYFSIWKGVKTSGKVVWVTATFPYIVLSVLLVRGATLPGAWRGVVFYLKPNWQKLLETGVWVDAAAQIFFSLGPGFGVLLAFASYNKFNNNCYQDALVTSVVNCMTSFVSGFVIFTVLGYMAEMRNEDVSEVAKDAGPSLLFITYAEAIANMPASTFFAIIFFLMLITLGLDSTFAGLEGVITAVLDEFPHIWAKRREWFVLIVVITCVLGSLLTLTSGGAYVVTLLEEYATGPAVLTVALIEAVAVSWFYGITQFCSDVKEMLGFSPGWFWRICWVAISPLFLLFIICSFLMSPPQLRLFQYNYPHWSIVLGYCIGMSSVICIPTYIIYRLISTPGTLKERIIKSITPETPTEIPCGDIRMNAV
5.73

Form field: pIC50 recorded for Fc1ccc(CNC2CCC(C(c3ccccc3)c3ccccc3)OC2)cc1 (single isomer, unassigned) with Sodium-dependent serotonin transporter (Rattus norvegicus, UniProt P31652) (enter value)
5.08

Form field: pIC50 recorded for Fc1ccc(CNC2CCC(C(c3ccccc3)c3ccccc3)NC2)cc1 (centres undefined) with Sodium-dependent serotonin transporter (Rattus norvegicus, UniProt P31652) (enter value)
5.65

Form field: pIC50 recorded for N#Cc1ccc(CNC2CCC(C(c3ccccc3)c3ccccc3)OC2)cc1 (racemic) with Sodium-dependent serotonin transporter (Rattus norvegicus, UniProt P31652) (enter value)
6.06
